- testedSystem: EGR1
- conditionSummary: ASO; further: test concentration or dose not given here
These antisense oligonucleotides have a phosphorothioate backbone; sugars and methylation of C are not fully specified.
observationType: remaining target (mRNA or protein) (fraction of control)

Below are worked cases with known answers.
residuestring=GGAAGGGCTTCTGGTCTG testedsystem=EGR1 result="≥ 1"
residuestring=CCCCGCCGCCTCCACCGC testedsystem=EGR1 result=0.38
residuestring=CCTGCGGCGGCGGAAGCT testedsystem=EGR1 result="≥ 1"
residuestring=GGAATTGGCTCTGAGAAC testedsystem=EGR1 result="≥ 1"
residuestring=CGCAGGCGAAGGGCTTTT testedsystem=EGR1 result="≥ 1"

Hi! Can you tell me remaining target (mRNA or protein) (fraction of control) for each of these sequences?
1. TAATACAATAGAATATGC
2. CGGCAGGGTAGGCAGGAG
3. TGCTGACCTGGGCCGGGA

1. ≥ 1
2. 0.56
3. ≥ 1

----------
- testedSystem: MAP2K2
- conditionSummary: ASO
These antisense oligonucleotides have a phosphorothioate backbone; sugars and methylation of C are not fully specified.
observationType: remaining target (mRNA or protein) (fraction of control)
Give bare numbers.

residuestring=CGTTCACAATATAGTCCA testedsystem=MAP2K2 measurednumber=0.4
residuestring=GGTAGGGTTGATGGTGAG testedsystem=MAP2K2 measurednumber=0.56
residuestring=AGCGTCGCCCGTCCCCAG testedsystem=MAP2K2 measurednumber=0.15
residuestring=GATGTACGGCGAGTTGCA testedsystem=MAP2K2 measurednumber=0.81

Please look at the items below and tell me remaining target (mRNA or protein) (fraction of control) for each one, in order.
1. TACCTTCCGACGGCCAGC
2. CTCCTTCTTCCCCGTCGA

1. 0.18
2. 0.4

Batch request: remaining target (mRNA or protein) (fraction of control) per item, same order as input.
1. CCGTTGCCCGCGCCCAGC
2. TCACCCCGAAGTCACACA
3. TCTTTCAGCACCTGGTCC
4. GAGGTACGCCAAGCCCCG
5. TTGGCTTTCTGGGTGAGA

0.24
0.56
0.48
0.11
0.83

State the recorded remaining target (mRNA or protein) (fraction of control) for every item in the following list.
1. GGTTCTTGATGAGGCATT
2. ACGCAGGGAGCCCGGCCA
3. GTCACTGTAGAAGGCCCC
4. CTTCTGCTGCTCGTCAAG
5. ATGATCTGGTTCCGGATG
6. TAACCTAAGGAAGCAGAG

1. 0.31
2. 0.29
3. 0.38
4. 0.65
5. 0.35
6. 0.33

----------
- testedSystem: ICAM1
- conditionSummary: ASO
These antisense oligonucleotides have a phosphorothioate backbone; sugars and methylation of C are not fully specified.
just bin them by remaining target (mRNA or protein) (fraction of control): 0: < 0.3; 1: ≥ 0.3 and < 0.6; 2: ≥ 0.6

// known answers, use as guide
residuestring=AGCGAGGCTGAG testedsystem=ICAM1 assignedcategory=2
residuestring=GCTACACATGTCTATGGAGGG testedsystem=ICAM1 assignedcategory=1
residuestring=TCTGAGTAGCAGAGGAGCTCAG testedsystem=ICAM1 assignedcategory=1
residuestring=CGGGGGCTGCTGGGAGC testedsystem=ICAM1 assignedcategory=2
residuestring=GATGCTACACATGTC testedsystem=ICAM1 assignedcategory=1
residuestring=CTCTGAGTAGCAGAGG testedsystem=ICAM1 assignedcategory=2
residuestring=AGCCATAGCGAGGCTGAGGTT testedsystem=ICAM1 assignedcategory=0
residuestring=TGCATCCCCCAGGCCACCAT testedsystem=ICAM1 assignedcategory=0

Which of the defined bands does the recorded remaining target (mRNA or protein) (fraction of control) of GGGTTGAAGCCATTGCAGGG sit within?
1

Lab log: GGGGCGGTGCTGCTTTCCCGG — assign remaining target (mRNA or protein) (fraction of control) category
2

----------
- testedSystem: INPPL1
- conditionSummary: ASO
These antisense oligonucleotides have a phosphorothioate backbone; sugars and methylation of C are not fully specified.
Rule: remaining target (mRNA or protein) (fraction of control) below 0.8 gives TRUE. Equal to or above 0.8 gives FALSE.

residuestring=TCCCTCCCCAGACCCACA testedsystem=INPPL1 assignedcategory=FALSE
residuestring=TGCGGCTGGCTGTCTTCA testedsystem=INPPL1 assignedcategory=FALSE
residuestring=GCACCAGCCGCCCACCCT testedsystem=INPPL1 assignedcategory=TRUE
residuestring=CATGGCTGATACGGTTCT testedsystem=INPPL1 assignedcategory=FALSE
residuestring=CAGTGGTGGAGGTGGAAA testedsystem=INPPL1 assignedcategory=FALSE
residuestring=TGTGCCTCCAGACTCCTC testedsystem=INPPL1 assignedcategory=TRUE
residuestring=AAGTAGTTTTGGTTCCTC testedsystem=INPPL1 assignedcategory=FALSE
residuestring=ATGTTGTCACTGCTCTGG testedsystem=INPPL1 assignedcategory=FALSE
residuestring=GTGGCAGATGGGACAGGG testedsystem=INPPL1 assignedcategory=FALSE
residuestring=AGACCCACACAGAACAGT testedsystem=INPPL1 assignedcategory=FALSE

Say whether its remaining target (mRNA or protein) (fraction of control) is strictly beneath 0.8. Entry: AGAGCAGGGCAGCACAGA
FALSE

In the record for TGCTCCTGCCTCATCCTT , is remaining target (mRNA or protein) (fraction of control) less than 0.8?
TRUE

Input ACAGACCAGGAGACAGTG ; condition: remaining target (mRNA or protein) (fraction of control) strictly below 0.8. Does it hold?
FALSE

Is the reported remaining target (mRNA or protein) (fraction of control) for ACGGTGGGATAGGAAGGT strictly below 0.8?
FALSE

Below 0.8 on remaining target (mRNA or protein) (fraction of control)? Entry GGAGATGAACTGGGAGGT
TRUE

----------
- testedSystem: BIRC5
- conditionSummary: ASO
These antisense oligonucleotides have a phosphorothioate backbone; sugars and methylation of C are not fully specified.
Would you mind telling me the reported remaining target (mRNA or protein) (fraction of control) of each entry?

residuestring=CCTCTGCCAACGGGTCCC result=0.96
residuestring=GCTTCTTGACAGAAAGGA result=0.65
residuestring=AGGACTGTGACAGCCTCA result=0.38
residuestring=CTTTCAAGACAAAACAGG result="≥ 1"
residuestring=TCAGATTCAACAGGCACC result="≥ 1"

List remaining target (mRNA or protein) (fraction of control) for every entry below, keeping the order given.
1. ACAGTTGAAACATCTAAT
2. TTTGAAAATGTTGATCTC
3. CCTGGAAGTGGTGCAGCC
4. ACTGTGGAAGGCTCTGCC
5. TGTTGTTAAACAGTAGAG
6. GGTCGTCATCTGGCTCCC
7. CCACGCGAACAAAGCTGT

["≥ 1", 0.92, 0.84, "≥ 1", "≥ 1", 0.64, 0.38]

I need remaining target (mRNA or protein) (fraction of control) for every entry listed below, if you could help.
1. TCTTGGCTCTTTCTCTGT
2. GCGATTCAAATCTGGCGG
3. CGATGGCACGGCGCACTT
4. CTGTCTCCTCATCCACCT
5. TCCAGCTCCTTGAAGCAG

1: 0.66; 2: ≥ 1; 3: 0.28; 4: 0.59; 5: 0.68

Give remaining target (mRNA or protein) (fraction of control) for all sequences that follow.
1. TGAGAAAGGGCTGCCAGG
2. GAGGAGCGGCCAGCATGT
3. GCCGAGATGACCTCCAGA
4. AAAAGGAGTATCTGCCAG
5. TCGCAGTTTCCTCAAATT
6. GACTTAGAATGGCTTTGT
7. TCTTATTGTTGGTTTCCT

1. 0.54
2. 0.53
3. 0.34
4. 0.61
5. 0.63
6. 0.63
7. ≥ 1

# per-item lookup of remaining target (mRNA or protein) (fraction of control); items listed below
1. AAGCAGCCACTGTTACCA
2. AAAGAGAGAGAGAGAGAG
3. ACAGGAAGGCTGGTGGCA

[0.36, 0.82, 0.3]

Provide remaining target (mRNA or protein) (fraction of control) for all items below, preserving their order.
1. GGCGCAGCCCTCCAAGAA
2. AGGGACACTGCCTTCTTC

[0.62, 0.57]

Record remaining target (mRNA or protein) (fraction of control) per entry; entries follow.
1. ATTCTCTAATCACACACA
2. TCCCTCACTTCTCACCTG
3. GGCTGACAGACACACGGC

0.74
0.71
0.59

Could you report remaining target (mRNA or protein) (fraction of control) for every entry in the following list?
1. TACGCCAGACTTCAGCCC
2. CAAGTCTGGCTCGTTCTC

1: 0.99; 2: ≥ 1

Which remaining target (mRNA or protein) (fraction of control) value belongs to TTCTTGAATGTAGAGATG ?
≥ 1

Recorded values, source the OligoGym collection.
